# Test system: lamb Na^+/K^+-ATPase
# procedureText: Fold differences of IC50 between lamb and insect Na+/K+-ATPases
# Assay type: biochemical
# conditionLabel: Figure 2, first number; lamb IC50 inferred from ref Paula et al., 2005
observationType: fold difference between IC50 values, lamb vs adapted insect (D. plexippus) Na^+/K^+-ATPase (x)
Give just the number in x; leave the unit off.

CC(=O)O[C@H]1C[C@H](O[C@H]2[C@@H](O)C[C@H](O[C@H]3[C@@H](O)C[C@H](O[C@H]4CC[C@@]5(C)[C@H](CC[C@@H]6[C@@H]5C[C@@H](O)[C@]5(C)[C@@H](C7=CC(=O)OC7)CC[C@]65O)C4)O[C@@H]3C)O[C@@H]2C)O[C@H](C)[C@H]1O[C@@H]1O[C@H](CO)[C@@H](O)[C@H](O)[C@H]1O [lanatoside C, reference compound]: 1564
CO[C@H]1C[C@H](O[C@H]2CC[C@]3(C=O)[C@H]4CC[C@]5(C)[C@@H](C6=CC(=O)OC6)CC[C@]5(O)[C@@H]4CC[C@]3(O)C2)O[C@H](C)[C@H]1O [cymarin]: 36
C[C@]12CC[C@H](O)C[C@H]1CC[C@@H]1[C@@H]2CC[C@]2(C)[C@@H](C3=CC(=O)OC3)[C@@H](O)C[C@]12O [gitoxigenin]: 1633

Lab note: next compound to report on.
Request: Given the compound CC12CC(O)C3C(CCC4(O)CC(O)CC(O)C34CO)C1(O)CCC2C1=CC(=O)OC1 (stereo not shown) [ouabagenin] , what is its reported fold difference between IC50 values, lamb vs adapted insect (D. plexippus) Na^+/K^+-ATPase?
Result: 1821
